test: folding stability dG unfold from trypsin proteolysis; higher = more stable
Entries annotated with measured folding stability dG unfold
The reply should be a number in kcal/mol, with the unit left off.

Solved cases (5 shown):
SAGGSAGGSAGGSVSELPPISTKTTTTVTTTSDGTKVVYTTTTYSDGTTTTTSGPVPAASAGGSAGGSAGGS [r10_682_JUSTAS] | 0.565
SMGLTKKERVITIVKEAYAKNPDKKITLRYADIEATTPEKMSAEEIEKLLKEVTGIKDIKIYPVKPDDPESA [r9_738_TrMRF] | 0.0464
SAGGVPVPPEVEYPISPEAVELAEKLAPELGAKNFKVTVVSVEPGYITVEITLPDTGKTVTVTIPLGSAGGS [r16_281_JUSTAS] | 1.5
SMRVVLVRPVPPELKEAELELRLPLPDGSEVEVKAETGEDFVVVTIELDDESAAEAVVEELEKLLEELLGSA [r9_790_TrMRF] | 0.926
SAGGMIEIEYNPDQGYFRITVWPMNPKNGKPKSKEIPIPFEGDPEEALDKVKDLIDDHPGYHVDIEPYSAGG [r13_284_TrROS] | 0.657

(Q) Identify the reported folding stability dG unfold for the following entry. SAGGMEEVIKELAKSLGVTKILPESEAKKLSSSVPNALAAVKLPDGSYVLIKRNSDGSVSSIKYKLESAGGS [r16_686_JUSTAS]
(A) 1.14

(Q) Identify the reported folding stability dG unfold for the following entry. SAGGEKITAEELVEEIQKIFNENGMKPVAIEPMPDGGVFIHFKNPYMIMIDAEEGKIEIMPPEDMEDFSAGG [r13_717_TrROS]
(A) 1.04

----------
assay: folding stability dG unfold (combined trypsin and chymotrypsin); higher = more stable
Entries annotated with measured folding stability dG unfold
The reply should be a number in kcal/mol, with the unit left off.

Solved cases (6 shown):
SAGGSAGGSAMKFPKGAKIEIVVTEDKVYVRIKTPGGKEIEVEMTLEELKKLGFEVEIVEEESAGGSAGGSA [r18_125_TrROS_Hall] | 2.19
SAGGTIFIPWEEAEEFIENAFENGEDIEIEFFLDDGWWYKFTITGPDIDLRVVEVVPMPPPPEDPGKKSAGG [r13_839_TrROS] | 2.34
SAMRPGDPWKPVEERKIPIRNPNNGKEIEIEVYRFKDDGMYMVSIHFPDGKSIQFMVPPGDVEEIIEQISAG [r14_240_TrROS] | 2.8
SAGVEELAEKIAKELEGEDFEVEAEVDPEKGTITVVVKTPDYVVVKEIYIDPKNDKPVMDVKVFKPNESAGG [r19_2_TrMRF] | -0.954
SMKVTVTVERLPDGRGRITITINDSTLEIEVPPGLDPEELRAFAEETAKEIEEKLKEEGNPVTIEEITLSSA [r9_751_JUSTAS] | 2.15
SAGGSAGGSAGGSVYIDPDKGYLVMWNEEDGYIVKYPIDPPNKIPSVDIEPIPPGDPLFSAGGSAGGSAGGS [r4_409_TrROS] | 1.26

(Q) Identify the reported folding stability dG unfold for the following entry. SAGKPKPEETVTLVLEVPKENPIKVEELFEKLPDVKFVEVKVEPLPDDRVLITITVLPEDVEKIKKALGSAG [r5_554_TrMRF]
(A) 2.76

(Q) Identify the reported folding stability dG unfold for the following entry. SAGGSAPEALVFVERREDDSLTVVVLFPDGTLVTRRVEVRDEGVTVETETAPVLVIPEPGRLELALSAGGSA [r15_746_TrMRF]
(A) 1.14

(Q) Identify the reported folding stability dG unfold for the following entry. SAGGSAGGPNYFVRITIKMRKPNGKPIGEFPIWIPFKSKEQARSLADELAQMPGIEKVDIELVPSAGGSAGG [r6_475_TrROS]
(A) 2.53

(Q) Identify the reported folding stability dG unfold for the following entry. SFGMIEIENEAFLPDGFRFKVEVWVMVDPDNGNLMIMLDIEIEPIPPPPPPPEPKPVKDKNGDWKPANDMSA [r9_898_TrROS]
(A) 3.12

(Q) Identify the reported folding stability dG unfold for the following entry. SAGGSAGGKVRVITVKPGETITVEGLPPGAVLITLPDGSVKEFPAGATIKVPPSAEIVVVEKEDSAGGSAGG [r6_866_TrROS_Hall]
(A) 0.778

(Q) Identify the reported folding stability dG unfold for the following entry. PPVGPDAPVTPTTTPTPSGKTVTTTDRPLRREVTTTDPSTGTYTVTLTETDAAGRVLATRTETLSPEEVAAS [r1_380_JUSTAS]
(A) -0.541

(Q) Identify the reported folding stability dG unfold for the following entry. SASSELLELLKALPTPEVPTDPIFTLEEPDRPIRVLSYDPETGLVTMLIPGTGARLIRDPASGTYTLLPSAG [r14_359_JUSTAS]
(A) 0.578
